Biological target: T1, CCX CKR (Homo sapiens, UniProt Q9NPB9)
T1 construct: Full length CCX CKR expression constructs were made in pIRESpuro expression vector; expressed in transfected cells
T1 sequence (Q9NPB9 1-350): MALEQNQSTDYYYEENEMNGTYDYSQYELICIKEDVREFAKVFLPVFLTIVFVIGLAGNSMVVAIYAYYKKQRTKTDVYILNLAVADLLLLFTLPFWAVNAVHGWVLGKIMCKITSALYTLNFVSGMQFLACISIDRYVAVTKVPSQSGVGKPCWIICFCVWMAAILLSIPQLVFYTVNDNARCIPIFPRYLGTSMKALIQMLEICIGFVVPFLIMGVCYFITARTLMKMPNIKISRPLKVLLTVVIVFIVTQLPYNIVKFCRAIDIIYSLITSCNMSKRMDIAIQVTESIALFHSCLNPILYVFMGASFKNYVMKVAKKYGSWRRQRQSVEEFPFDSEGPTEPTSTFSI
Experiment: Radioligand binding competition (DisplaceMax) to CCX CKR stable transfectants with Scatchard transformation

# molecule, affinity of binding to CCX CKR, in words
measured = [
    ("SLC: secondary lymphoid-tissue chemokine, recombinant (protein) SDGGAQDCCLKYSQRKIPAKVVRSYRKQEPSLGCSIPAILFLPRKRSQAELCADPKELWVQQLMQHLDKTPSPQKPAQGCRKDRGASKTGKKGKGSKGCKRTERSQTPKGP", "high affinity"),
    ("murine CTACK: murine chemokine CTACK, also referred to as CCL27, ALP, ILC, and ESkine (protein) LPLPSSTSCCTQLYRQPLPSRLLRRIVHMELQEADGDCHLQAVVLHLARRSVCVHPQNRSLARWLERQGKRLQGTVPSLNLVLQKKMYSHPQQQN", "high affinity"),
    ("TECK: thymus expressed chemokine, recombinant (protein) QGVFEDCCLAYHYPIGWAVLRRAWTYRIQEVSGSCNLPAAIFYLPKRHRKVCGNPKSREVQRAMKLLDARNKVFAKLHHNTQTFQAGPHAVKKLSSGNSKLSSSKFSNPISSSKRNVSLLISANSGL", "high affinity"),
]
